System: THRa:RXRa (NR concentration 90 nM, RXRa partner concentration 90 nM)
Assay method text: PBM binding z-score (relative to random genomic background probes); higher = stronger binding; sequences stand for … in GC…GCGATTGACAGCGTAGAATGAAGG
A collection of sequences and their measured PBM binding z-score

| Item sequence | PBM binding z-score |
| --- | --- |
| GATGCTAGGTCAGGTTGGTCAGCTAACGGGTACG | 1.92 |
| CCTCAGAGGACAGAAGGTCAGAGCTGTCCGCTTT | 1.95 |
| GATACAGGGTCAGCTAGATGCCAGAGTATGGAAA | 2.87 |
| AGAACGGGGGCAATGAGTTGATAGCACGGGTGGC | 2.45 |
| CCGAGTAGGTTATGGGGCTTTCAGGCAACGGTGA | 0.519 |
| ATCTCTAGGTAAAGATCGTTCAGTGAATGCAAAT | 0.22 |

----------
Tested on: RXRa DBDmut IVT, anti-RXR (DBD mutation: RXRa K156A/R161A, NR concentration 90 nM)
Assay method text: PBM binding z-score (relative to random genomic background probes); higher = stronger binding; sequences stand for … in GC…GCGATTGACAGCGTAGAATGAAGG
A collection of sequences and their measured PBM binding z-score
Recorded metric: PBM binding z-score

| Item sequence | Quantitative readout |
| --- | --- |
| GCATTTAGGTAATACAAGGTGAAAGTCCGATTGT | 0.617 |
| CCTTACGGGTCAAGGTTATAGGACGGGTGGTACG | 0.475 |
| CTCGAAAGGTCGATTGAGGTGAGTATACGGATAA | 1.66 |
| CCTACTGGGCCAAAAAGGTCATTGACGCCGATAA | 0.774 |
| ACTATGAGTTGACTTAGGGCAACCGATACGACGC | 1.49 |
| CCTGCTAGGTCATTGTCAGCTAATCTACAGTATG | 2.93 |
| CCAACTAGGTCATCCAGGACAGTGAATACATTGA | 2.49 |
| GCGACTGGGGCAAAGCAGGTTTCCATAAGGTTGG | 0.157 |
| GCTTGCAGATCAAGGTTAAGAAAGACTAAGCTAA | -0.00088 |
| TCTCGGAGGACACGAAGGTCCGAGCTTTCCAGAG | 0.546 |
| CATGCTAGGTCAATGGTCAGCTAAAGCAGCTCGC | 1.63 |
| TAGCCTAGGTGAGATCGGGCCAGTATACGCTATA | -1.2 |

----------
Tested on: PXR homodimer (NR concentration 270 nM)
Assay method text: PBM binding z-score (relative to random genomic background probes); higher = stronger binding; sequences stand for … in GC…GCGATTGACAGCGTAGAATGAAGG
Kindly note that classification relies on PBM binding z-score with these boundaries: lower bin: < -0.2; middle bin: ≥ -0.2 and < 0.5; upper bin: ≥ 0.5

| Item sequence | Label value |
| --- | --- |
| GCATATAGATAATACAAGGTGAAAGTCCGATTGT | middle bin |
| CCGAGTAGGTTATGGGGGATTCAGGCAACGGTGA | upper bin |
| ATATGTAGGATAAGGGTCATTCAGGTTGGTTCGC | upper bin |
| CGAACTAGGTCAGAACAGCACAGTGAAGGATGAT | middle bin |
| ATCTCTAGGTAAGACTCAGTTCTGTGAAGAACGC | middle bin |
| CGTCAGAGTTCAAGGTAACGTAACAGAAAGCAGC | upper bin |
| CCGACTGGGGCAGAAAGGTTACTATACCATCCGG | lower bin |
| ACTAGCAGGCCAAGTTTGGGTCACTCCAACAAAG | lower bin |
| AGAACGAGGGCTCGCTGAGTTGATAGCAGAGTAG | lower bin |
| CCTCGGTGGACAGAAGGTCAGAGCTGTCCGCTTT | lower bin |
| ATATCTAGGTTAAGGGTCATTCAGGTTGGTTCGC | upper bin |
| CCGACTCGGGCAAGGTTACCATAACGCACAGCCA | middle bin |
| GGAACGAGGGCAAAGTTGCTAGCATCTGTCGACG | lower bin |
| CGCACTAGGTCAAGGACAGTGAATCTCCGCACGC | middle bin |
| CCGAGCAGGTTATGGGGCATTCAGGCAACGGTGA | lower bin |
| ACTAGCAGGCCAAGTTTGGGTCACCCAAACAAAG | lower bin |
| ATCTGTAGGTAAAAGTTCAGTGAATCCCGAGGAT | upper bin |
| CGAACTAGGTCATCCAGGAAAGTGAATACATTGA | middle bin |
| GCGACTGGGGCAAAGCAGGTTACCAAAAGGTTGG | lower bin |
| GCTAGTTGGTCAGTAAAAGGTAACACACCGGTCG | middle bin |
| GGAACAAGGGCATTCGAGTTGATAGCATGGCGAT | upper bin |
| TCTAGCAGGCCAGAGGGGCACTCAAGAGGTACGG | lower bin |
| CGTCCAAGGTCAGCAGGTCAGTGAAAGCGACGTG | upper bin |
| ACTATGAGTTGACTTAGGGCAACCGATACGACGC | upper bin |

Reference source for all entries: the supplement of paper PMC6555819
